test system: A549 NSCLC; test: NCI tumour cell line growth inhibition, 48 h
Property Measured: TGI (µM)
// units = µM; emit number, no label

C=C(C)[C@@H]1CC[C@]2(CO)CC[C@]3(C)[C@H](CC[C@@H]4[C@@]5(C)C=C(C#N)C(=O)C(C)(C)[C@@H]5CC[C@]43C)[C@@H]12 3.5

q: Please look up its TGI: `O=C1/C(=C(/c2ccccc2)N2CCOCC2)Cc2ccccc21`
a: 8.35

----------
test system: MCF7 breast; assay: NCI tumour cell line growth inhibition, 48 h
Property Measured: TGI

Molecule	Tested System	TGI
Cc1cc(C(=O)Nc2ccc3cc(CN4CCOCC4)ccc3n2)c(C)n1-c1ccccc1	MCF7 breast	10.8 µM
COc1cc2oc(-c3ccc(O)cc3)c(OC)c(=O)c2c(O)c1OC	MCF7 breast	> 100 µM
COC(=O)C1=CS/C(=C2\S[C@@H]3[C@H](S2)[C@H]2C=C[C@@H]3C2)S1	MCF7 breast	> 100 µM
CCOC(=O)c1ccc(N[C@@H]2c3cc4c(cc3C(c3cc(OC)c(O)c(OC)c3)[C@H]3C(=O)OCC32)OCO4)cc1O (some centres not stated)	MCF7 breast	> 79.3 µM
O=C1NC2O[C@H](CNC(=O)c3cc(Br)c[nH]3)CC2(O)N1 (mixture of isomers)	MCF7 breast	> 100 µM
COC1=C(OC)C(=O)C(Cc2c(C)nc3sccn23)=C(C)C1=O	MCF7 breast	> 100 µM
Nc1nc(Nc2cccnc2)sc1C(=O)c1ccccc1F	MCF7 breast	8.41 µM
COc1cc2c(cc1OCCCCC(=O)Nc1cc3c4ccccc4ccc3c3ccccc13)N=C[C@@H]1CCCN1C2=O	MCF7 breast	34.1 µM

Let us examine a further case.
q: Please look up its TGI: `CCOC(=O)C1CCN(S(=O)(=O)/N=C2/NC(=O)NC2=C(Cl)Cl)CC1`
a: 22 µM

----------
tested on: SNB-19 CNS; test: NCI tumour cell line growth inhibition, 48 h
# Lookup of reported TGI keyed by entry
// units = µM; emit number, no label

Structure As Smiles	Property Measured	Measured Number
O=C(c1ccco1)N(C(=S)OCCOc1ccccc1)c1ccccc1	TGI	59.7

q: Please look up its TGI: `CC1(C)C(=O)/C(=C\c2cccnc2)C[C@]2(C)[C@H]3CC[C@@H]4[C@H]5[C@H](C(=O)/C=C/c6cccnc6)CC[C@]5(C(=O)O)CC[C@@]4(C)[C@]3(C)CC[C@@H]12`
a: 5.69

----------
tested on: NCI-H460 lung; assay: NCI tumour cell line growth inhibition, 48 h
# Lookup of reported TGI keyed by entry

Compound	Result
CCCC(CCC)NCC(O)c1cc(-c2ccc(C(F)(F)F)cc2)nc(C(F)(F)F)c1 (stereo not drawn)	3.4 µM

q: Please look up its TGI: `NNC(=O)c1c(SCc2ccccc2)nc2c3ccccc3ccn12`
a: 28 µM

q: Please look up its TGI: CCOC(=O)N[C@@H]1C(CC(=O)OC)O[C@H]2OC(C)(C)O[C@H]21 (stereo partly drawn)
a: > 100 µM

q: Please look up its TGI: CCOC1=NC(O)c2cccn2-c2sccc21 (stereo not drawn)
a: > 100 µM

q: Please look up its TGI: CCCCC1Cc2ccccc2-c2nc3ccccc3n21 (stereo not drawn)
a: 28.8 µM

q: Please look up its TGI: CC(CC[C@@]1(C)C(=O)CCC2O[C@]21C)[C@H]1C[C@@H](c2ccoc2)OC1=O (stereo partly drawn)
a: > 100 µM

q: Please look up its TGI: `CC(=O)O[C@H]1C(=O)[C@@]2(C)[C@H]([C@H](OC(=O)c3ccoc3)[C@]3(O)C[C@H](OC(=O)[C@H](O)[C@@H](NC(=O)c4ccccc4)c4ccccc4)C(C)=C1C3(C)C)[C@]1(OC(C)=O)CO[C@@H]1C[C@@H]2O`
a: > 3.73 µM

q: Please look up its TGI: `O=C(N/N=C\C=C\c1ccc([N+](=O)[O-])o1)C(=O)N/N=C\C=C\c1ccc([N+](=O)[O-])o1`
a: > 100 µM
